# test-system: T1, class I MHC receptor HLA-A2 on T2 cells (human)
# T1 construct: detected on the cell surface with a mouse anti-human HLA-A2 monoclonal antibody and goat anti-mouse IgG F(ab')2-FITC; also called HLA-A2 receptor; HLA-A2 class I MHC
# method-description: T2 cells, anti-HLA-A2 flow cytometry after brefeldin A; Average; 8 hr
endpoint-label: fluorescence index (F.I.)

INSERT INTO results (binder, measurement_unit, reported_result) VALUES
  ('GQGDVMVFV [Filamin B peptide #6]', 'F.I.', 1.05),
  ('KLILGLVWT [Filamin B peptide #7]', 'F.I.', 1.05);

P: SLQESGLKV [Filamin B peptide #4]
Q: LILGLVWTL [Filamin B peptide #1]
R: GLAPLEVRV [Filamin B peptide #3]
In: Please produce an ascending ranking of these binders based on fluorescence index. Please reply with the labels ordered as requested. Many thanks.
Out: P, Q, R

The values you see were collected from patent US20090053750A1.
